List of cell viability values.
- Test system: P12-Ichikawa
- Protocol Text: cell viability relative to DMSO control; higher = less cytotoxic
- Assay Setup: RPMI 5 mM glucose + 10% dialyzed FBS; 48 h; 0.000781 µM
Answer format: numeric, % implied, no suffix.

Consider the following illustrative entries.
CCCCCN(C)CCC(O)(P(=O)([O-])O)P(=O)(O)O :: 79
CCn1c(C(=O)N(C2CC2)C2CC2)cc2c3c(ncn3C)c(Nc3cc(C)n(C)n3)nc21 :: 90.4
COc1ccc(/C=C/C(=O)Nc2ccccc2C(=O)O)cc1OC :: 103
C[C@@H](Cc1cc2c(c(C(N)=O)c1)N(CCCO)CC2)NCCOc1ccccc1OCC(F)(F)F :: 90.4
OC[C@H]1OC(O)C[C@@H](O)[C@@H]1O (stereo partly specified) :: 107
COC(=O)[C@H](Cc1ccccc1)NC(=O)[C@@H](N)CC(=O)O :: 114

Task item: Which value of cell viability has been reported for CC(C)(C)[C@]1(O)C[C@@H]2OC(=O)C[C@@]23C(=O)O[C@@H]2OC(=O)[C@H](O)C213 (stereo partly specified) in the records?
Reply: 120

Task item: What about OC(=O)CNC(=O)\C1=C(/O)C2=CC=CC=C2N(CC3=CC=CC=C3)C1=O ?
Reply: 90.4

Task item: Repeat for the following molecule: CC(O)(C[S+](=O)([O-])c1ccc(F)cc1)C(=O)Nc1ccc(C#N)c(C(F)(F)F)c1 (stereo unspecified)
Reply: 78.3

Task item: Please give the result for COc1ccc(-n2c(C)c([N+](=O)[O-])c3ccc(O)cc32)cc1 too.
Reply: 119

Task item: Follow-up entry: CC1(C)CCC(C)(C)c2cc(NC(=O)c3ccc(C(=O)O)cc3)ccc21
Reply: 96.2

====

- Tested on: SEM cells
- Protocol Text: cell viability relative to DMSO control; higher = less cytotoxic
- Assay Setup: RPMI 5 mM glucose + 10% FBS; 48 h; 46.1 µM
Decide using cell viability alone. Strictly below 60%: TRUE. Equal to or above 60%: FALSE.

N#Cc1cc(NC(=O)Nc2nnc(-c3ccncc3)s2)ccc1-c1cn[nH]c1 :: FALSE
CN(C)C(=O)[C@H](O)[C@H](Cc1ccccc1)NC(=O)c1cc2cc(Cl)ccc2[nH]1 :: TRUE
CCCCN1CCC(CNC(=O)c2c3n(c4ccccc24)CCCO3)CC1 :: FALSE
CC(C)C[C@H](CC(=O)O)C(=O)N[C@@H](Cc1c[nH]c2ccccc12)C(=O)N[C@@H](C)c1ccccc1 :: TRUE
c1coc(CNc2ncnc3nc[nH]c23)c1 :: FALSE

Task item: Does the reported cell viability of the following compound sit strictly below 60%? CC(C)(Sc1cc(C(C)(C)C)c(O)c(C(C)(C)C)c1)Sc1cc(C(C)(C)C)c(O)c(C(C)(C)C)c1
Reply: FALSE

Task item: Then this compound: CCOc1ccccc1N/N=C1/C(=O)N(c2nc(-c3ccccc3)cs2)N=C1C
Reply: TRUE

Task item: Now the same for Cc1cccc(-c2[nH]c(C(C)(C)C)nc2-c2ccc3nccnc3c2)n1
Reply: TRUE

Task item: Now give it for COC(=O)CCC1=C(C)C2=CC3=NC(=CC4=C(C)C(=C([NH]4)C=C\5N=C(C=C1[NH]2)\C(=C5C)CCC(O)=O)C=C)\C6=C\C=C(/[C@@H](C(=O)OC)[C@@]36C)C(=O)OC too.
Reply: FALSE

Task item: Thanks! And C[C@H](NC(=O)[C@@H](O)c1cc(F)cc(F)c1)C(=O)N[C@@H]1C(=O)N(C)c2ccccc2-c2ccccc21 ?
Reply: FALSE

====

- System: NOMO1
- Protocol Text: cell viability relative to DMSO control; higher = less cytotoxic
- Assay Setup: RPMI 5 mM glucose + 10% FBS; 48 h; 0.0632 µM
Measurement Kind: cell viability (%)
Lab book: enter the figure in %, no units written.

Past entries and their recorded results:
c1cc2c(cc1[C@H]1OC[C@H]3[C@@H]1CO[C@@H]3c1ccc3c(c1)OCO3)OCO2 :: 146
O=C(Nc1ccccc1)Nc1ccc(-c2ccc(C(=O)[C@@H]3CCC[C@H]3C(=O)O)cc2)cc1 :: 110
N#Cc1cc(NC(=O)Nc2nnc(-c3ccncc3)s2)ccc1-c1cn[nH]c1 :: 114

Please examine the following record next.
Task item: Record lookup: for NOMO1, what cell viability belongs to CC(C)[C@]12O[C@H]1[C@@H]3O[C@@]34[C@@]5(C)CC\C6=C(COC6=O)/[C@@H]5C[C@@H]7O[C@]47[C@@H]2O ?
Reply: 7.93

====

- Test system: SEM cells
- Protocol Text: cell viability relative to DMSO control; higher = less cytotoxic
- Assay Setup: RPMI 5 mM glucose + 10% dialyzed FBS; 48 h; 0.0632 µM
Measured cell viability, listed per entry.
Express the result in % but write the number alone.

CN(CC(=O)N(Cc1ccc(C2CCCCC2)cc1)c1ccc(C(=O)O)c(O)c1)[S+](=O)([O-])c1c(F)c(F)c(F)c(F)c1F :: 103
C/C1=C/C(=C(/CNC(=O)C2=CC(=CC3=C2C=N[N]3C4CCCC4)C5=CC=C(CN6CCOCC6)C=C5)C(=O)N1)C :: 130
NCCOc1cc(C(=O)Nc2cc(OCCN)c3ccccc3n2)nc(C(=O)Nc2cc(OCCN)c3ccccc3n2)c1 :: 22.9
CCOc1ccccc1N/N=C1/C(=O)N(c2nc(-c3ccccc3)cs2)N=C1C :: 106
COc1cccc(N(C)C(=S)Oc2ccc3c(c2)CCCC3)n1 :: 91.3

Lab note: next compound to report on.
Task item: Give its cell viability value. Item: OC1=C(Cl)C=C(N\C2=C(\C(=O)NC2=O)C3=C(C=CC=C3)[N+]([O-])=O)C=C1
Reply: 113

====

- Test system: SEM cells
- Protocol Text: cell viability relative to DMSO control; higher = less cytotoxic
- Assay Setup: RPMI 5 mM glucose + 10% FBS; 48 h; 0.569 µM
Measurement Kind: cell viability (%)
State just the number; it will be interpreted in %.

Sample records with cell viability:
CC(C)(C)[C@]1(O)C[C@@H]2OC(=O)C[C@@]23C(=O)O[C@@H]2OC(=O)[C@H](O)C213 (some centres undefined) :: 113
COc1cccc(OC)c1-c1cc(C(=O)NC2(C(=O)O)C3CC4CC(C3)CC2C4)nn1-c1ccnc2cc(Cl)ccc12 (centres undefined) :: 104

Task item: Query (compound): C#CCC(Cc1cnc2nc(N)nc(N)c2n1)c1ccc(C(=O)N[C@@H](CCC(=O)O)C(=O)O)cc1 (some centres undefined) ; field requested: cell viability
Reply: 74.1

Task item: Could you do the same for Cc1ccc(C(=O)Nc2ccc([S+](=O)([O-])O)c3cc([S+](=O)([O-])O)cc([S+](=O)([O-])O)c23)cc1NC(=O)c1cccc(NC(=O)Nc2cccc(C(=O)Nc3cc(C(=O)Nc4ccc([S+](=O)([O-])O)c5cc([S+](=O)([O-])O)cc([S+](=O)([O-])O)c45)ccc3C)c2)c1 , please?
Reply: 100

====

- Tested on: SEM cells
- Protocol Text: cell viability relative to DMSO control; higher = less cytotoxic
- Assay Setup: RPMI 5 mM glucose + 10% dialyzed FBS; 48 h; 0.00234 µM
Measurement Kind: cell viability (%)
Value expressed in %; do not type the unit.

OC[C@H]1OC(O)C[C@@H](O)[C@@H]1O (some centres undefined) :: 37.5
CN(C)c1ccc(-c2nc3c(N4CCN(CC(=O)Nc5nccs5)CC4)c(Cl)cnc3[nH]2)cc1 :: 121
CC[C@H]1OC(=O)[C@H](C)[C@@H](O[C@H]2C[C@@](C)(OC)[C@@H](O)[C@H](C)O2)[C@H](C)[C@@H](O[C@@H]2O[C@H](C)C[C@H](N(C)C)[C@H]2O)[C@](C)(O)C[C@@H](C)/C(=N\OCOCCOC)[C@H](C)[C@@H](O)[C@]1(C)O :: 104
CCc1nc(N)nc(N)c1-c1ccc(Cl)cc1 :: 92.2
C[C@@H](Cc1cc2c(c(C(N)=O)c1)N(CCCO)CC2)NCCOc1ccccc1OCC(F)(F)F :: 98.3
C[C@]12CC[C@H]3[C@@H](CC[C@@]45O[C@@H]4C(O)=C(C#N)C[C@]35C)[C@@H]1CC[C@@H]2O :: 107
Cc1cnc(Nc2cccc(CN3CCOCC3)c2)nc1Nc1cccc([S+](=O)([O-])NC(C)(C)C)c1 :: 93.5
COc1cc(N2CCN(C)CC2)ccc1Nc1nc(N)c(C(=O)c2c(Cl)cccc2Cl)s1 :: 105
NC(=O)c1nnn(Cc2cc(Cl)c(C(=O)c3ccc(Cl)cc3)c(Cl)c2)c1N :: 113
c1ccc2c(CN3CCNCC3)cccc2c1 :: 106

Task item: Which cell viability reading was recorded for the compound O=C(Nc1nc2cccc(-c3ccc(CN4CC[S+](=O)([O-])CC4)cc3)n2n1)C1CC1 ?
Reply: 125

Task item: Continue with CCCCN1CCC(CNC(=O)c2c3n(c4ccccc24)CCCO3)CC1
Reply: 101

Task item: Proceed to CN(C)C(=O)[C@H](O)[C@H](Cc1ccccc1)NC(=O)c1cc2cc(Cl)ccc2[nH]1
Reply: 108

Task item: Continue with CC1(C)CCC(C)(C)c2cc(NC(=O)c3ccc(C(=O)O)cc3)ccc21
Reply: 92.4

Task item: Next entry: O=c1oc2cc(O)ccc2s1
Reply: 119

Task item: Do the same for CN1CCC(CNc2ccc3ncc(-c4cccc(OC(F)(F)F)c4)n3n2)CC1 please
Reply: 109

Task item: Now consider CC[C@H](C)C(=O)O[C@H]1C[C@@H](C)\C=C2\C=C/[C@H](C)[C@H](CC[C@@H]3C[C@@H](O)CC(=O)O3)[C@@H]12 .
Reply: 84.6

Task item: And what about the compound NCCOc1cc(C(=O)Nc2cc(OCCN)c3ccccc3n2)nc(C(=O)Nc2cc(OCCN)c3ccccc3n2)c1 ?
Reply: 58.4

Task item: Now the same for CCN1\C=C(C(O)=O)/C(=O)C2=C1C(=C(N3CCNC(C)C3)C(=C2)F)F (centres undefined)
Reply: 105
